Biological target: ER α (Homo sapiens)
Sequence (P03372 1-595): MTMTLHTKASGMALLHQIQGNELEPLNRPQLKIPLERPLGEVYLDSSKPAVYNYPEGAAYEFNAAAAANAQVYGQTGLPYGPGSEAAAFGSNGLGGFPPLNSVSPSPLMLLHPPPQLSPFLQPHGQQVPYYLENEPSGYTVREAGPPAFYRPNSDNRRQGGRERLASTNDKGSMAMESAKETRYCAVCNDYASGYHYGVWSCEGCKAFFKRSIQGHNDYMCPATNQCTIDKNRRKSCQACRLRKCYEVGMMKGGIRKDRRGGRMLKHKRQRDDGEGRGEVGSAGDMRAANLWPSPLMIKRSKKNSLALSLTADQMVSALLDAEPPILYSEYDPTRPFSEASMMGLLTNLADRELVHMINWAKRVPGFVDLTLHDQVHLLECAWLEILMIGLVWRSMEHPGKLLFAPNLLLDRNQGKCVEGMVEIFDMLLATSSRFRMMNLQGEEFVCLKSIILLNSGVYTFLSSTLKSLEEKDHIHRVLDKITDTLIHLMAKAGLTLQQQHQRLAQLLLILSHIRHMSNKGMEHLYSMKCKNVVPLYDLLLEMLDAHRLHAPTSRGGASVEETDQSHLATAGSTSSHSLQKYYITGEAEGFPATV
Experiment: Receptor binding assay for estrogen receptor alpha
Details: summary of Tables 3 to 5
Peptide text beside a SMILES is read from it.
TEST READOUT: recognition of / binding activity to estrogen receptor α

MOLECULE: NCCCC[C@H](N)C(=O)N1CCC[C@H]1C(=O)N[C@@H](Cc1c[nH]c2ccccc12)C(=O)N[C@@H](Cc1ccccc1)C(=O)N[C@@H](Cc1ccccc1)C(=O)N[C@@H](CCC(=O)O)C(=O)O [Peptide 21, KPWFFE] (H-KPWFFE-OH)
RESULT: recognized
--
MOLECULE: N=C(N)NCCC[C@H](NC(=O)[C@@H](N)CCCCN)C(=O)N[C@@H](Cc1c[nH]c2ccccc12)C(=O)N[C@@H](Cc1ccccc1)C(=O)N[C@@H](Cc1ccccc1)C(=O)N[C@@H](CCC(=O)O)C(=O)O [Peptide 44, KRWFFE] (H-KRWFFE-OH)
RESULT: recognized
